Let's go through some recorded pKi values for Carbonic anhydrase 4 (Homo sapiens) together.
One number for each entry, as −log10 of the molar value.

For each of the compounds below, note its pKi.
1. NNc1ccc(S(N)(=O)=O)cc1
2. NCc1ccc(S(N)(=O)=O)cc1 [MAFENIDE]
3. Nc1ccc(S(N)(=O)=O)cc1 [SULFANILAMIDE]
4. Nc1ccc(S(N)(=O)=O)cc1Br
5. CC1(C)O[C@@H]2[C@@H](CO[C@@]3(COS(N)(=O)=O)OC(C)(C)O[C@@H]23)O1 [TOPIRAMATE]

A:
5.11
5.07
5.01
7.02
5.31

----------
Let's go through some recorded pKi values for Carbonic anhydrase 4 (Bos taurus, UniProt Q95323) together.
Give bare numbers, as −log10 of the molar value.

[
  {
    "smiles code": "Nc1cc(C(F)(F)F)c(S(N)(=O)=O)cc1S(N)(=O)=O",
    "pKi": 6.62
  }
]

Next compound, please.
Q: Any idea what pKi was measured for Nc1ccc(S(=O)(=O)NCc2ccc(S(N)(=O)=O)cc2)cc1 ?
A: 7.30
